Recorded values, source a melting point compilation (Tetko et al.; mined from patent text by program, amines drawn as free bases though some values may be those of a salt).

// melting point lookup, one value per entry

In one line, give reported melting point of the entry CN1C(=O)C(c2c[nH]c3ccccc23)=C(c2cn(C)c3ccccc23)C1=O .
168 to 171 °C

In one line, give reported melting point of the entry CC(=O)NC[C@H]1CN(c2ccc(-c3ncno3)c(F)c2)C(=O)O1 .
199 to 200 °C

In one line, give reported melting point of the entry CC(O)c1cc2c3ccccc3[nH]c(=O)n2n1 (stereo not given) .
242 to 245 °C

In one line, give reported melting point of the entry CSCC(=O)C(Cc1cccc2ccccc12)NC(=O)C(CC(C)C)NC(=O)OCc1ccccc1 (stereo not given) .
77 to 80 °C

In one line, give reported melting point of the entry c1cc2c3c(cccc3c1)C(NOCCCn1ccnc1)=N2 .
102 to 104 °C

In one line, give reported melting point of the entry COC(=O)c1ccc(C=Cc2cnc3nc(NC(=O)C(C)(C)C)nc(O)c3c2)[nH]1 .
> 260 °C

In one line, give reported melting point of the entry COc1ccc(C(=O)NNC(=O)N(C)C)cc1 .
218 to 220 °C

In one line, give reported melting point of the entry CCCCCCCCCC(C)(C)c1cc(-c2cc3ccc(C(=O)O)cc3o2)ccc1OC .
150 °C

In one line, give reported melting point of the entry CCOc1ccc(-n2c(C(F)(F)F)nn(C)c2=S)cc1 .
93 to 95 °C

In one line, give reported melting point of the entry CCCCCCCCCCCCc1ccc(S(=O)(=O)Nc2nnc(S(N)(=O)=O)s2)cc1 .
249 to 250 °C

In one line, give reported melting point of the entry CSc1ccc(CC(=O)NC(NC(Cc2ccccc2C)=NC#N)C(C)(C)C)cc1 (stereo not given) .
201 to 202 °C

In one line, give reported melting point of the entry Cc1cc(-c2cc(C(F)(F)F)n3ncc(-c4nc(-c5cnc(N)nc5)no4)c3n2)ccc1C(F)(F)F .
272 °C

In one line, give reported melting point of the entry Cc1c(N)c(F)cc2c(=O)c(C(=O)O)cn(-c3cc(O)c(F)cc3F)c12 .
> 280 °C

In one line, give reported melting point of the entry CCCN(CCC)c1c([N+](=O)[O-])cc(C2OCCS2)cc1[N+](=O)[O-] (stereo not given) .
111 to 112 °C

In one line, give reported melting point of the entry CCOC(=O)c1cc2n(c1)CN(CCC#N)c1ccccc1-2 .
102 to 104 °C

In one line, give reported melting point of the entry Cc1oc2c(-n3c(=O)cc(C(F)(F)F)n(C)c3=O)c(F)cc(Cl)c2c1C=O .
148 to 150 °C

In one line, give reported melting point of the entry N[C@@H](Cc1ccccc1)C(=O)N(C(=O)Cc1cc(F)cc(F)c1)[C@@H]1C(=O)Nc2ccccc2S[C@@H]1c1ccccc1 .
115 to 120 °C

In one line, give reported melting point of the entry CNS(=O)(=O)c1cc(OC)c(OC)c(C(=O)NCC2CCCN2CC2CC2)c1 (stereo not given) .
110 to 112 °C

In one line, give reported melting point of the entry Cc1cc(SCc2ccc(OCc3ccccn3)cc2)ccc1OCC(=O)O .
150 °C

In one line, give reported melting point of the entry O=C(Nc1ccc(-n2nc(C(F)(F)F)cc2C(F)(F)F)cc1)c1ccno1 .
202 to 204 °C
